Tested on: grafted B16 F0 murine melanoma tumour
Experiment: Biodistribution of the ^125I-labelled molecules in the melanoma-bearing mouse (autoradiography of whole-body sections)
Settings: blood; 1 H
Structures can show the parent of a compound that is named as a salt.
Please mark 1 (yes) if the recorded Biodistribution, Mean, blood is equal to or greater than 2, and 0 (no) if it falls below.

{"columns": ["compound", "category"],
 "data": [
  ["CCN(CC)CCNC(=O)c1cccc2cc3cc(I)ccc3nc12 [compound 111, dihydrochloride]", "0 (no)"],
  ["CCN(CC)CCNC(=O)c1cnc2cc(I)ccc2n1.Cl.Cl [compound 46]", "1 (yes)"],
  ["CCN(CC)CCNC(=O)c1ccc2cncc(I)c2n1.Cl.Cl [compound 142]", "1 (yes)"],
  ["CCCN(CCC)CCCCNC(=O)c1ccc2cc(I)ccc2n1 [compound 49, dihydrochloride]", "1 (yes)"],
  ["CCN(CC)CCNC(=O)c1cc2c(I)cccc2cn1 [compound 39, dihydrochloride]", "1 (yes)"]
]}

Kindly review the next compound as well.
Does the compound CCN(CC)CCNC(=O)c1c[nH]c2ccc(I)cc2c1=O [compound 35, dihydrochloride] have recorded Biodistribution, Mean, blood that is 2 or more?
0 (no)
